- protocol-notes: Pharmacokinetic study of four steroidal saponins in rat plasma after oral administration of A. asphodeloides fractions (UPLC-MS/MS)
- Format: in vivo, Sprague-Dawley rats
- condition-context: male, Sprague-Dawley, rat, plasma, po, 400 mg/kg, rat plasma, single oral dose, Group ASE-SF-MF, n = 6, mean ± S.D.; read-out: T1/2 (converted)
readout-name: half-life (h)

{"columns": ["query-smiles", "readout-number"],
 "data": [
  ["C[C@H]1CC[C@@]2(OC1)O[C@H]1C[C@H]3[C@@H]4CC[C@@H]5C[C@@H](O[C@@H]6O[C@H](CO)[C@H](O)[C@H](O)[C@H]6O[C@@H]6O[C@H](CO)[C@@H](O)[C@H](O)[C@H]6O)CC[C@]5(C)[C@H]4CC[C@]3(C)[C@H]1[C@@H]2C", 8.94]
]}
